System: THP-1 viability, CellTiter-Glo luminescence, 72 h
method-description: PubChem AID 2252
Reported EC50 by item:

molecule: O=c1[nH][nH]c(-c2ccccc2O)c1C(C[N+](=O)[O-])c1ccc(Br)cc1 (centres undefined)
EC50: 21.1 µM
--
molecule: OCCCNc1c2ccccc2nc2ccccc12
EC50: 2.13 µM
--
molecule: C#CCOCCOCCOCCNc1nc(N2CCN(C(=O)[C@H]([C@@H](C)CC)n3cc([C@@H](N)Cc4ccc(O)cc4)nn3)CC2)nc(N2CCN(C(=O)[C@H](Cc3cc4ccccc4[nH]3)n3cc([C@@H](N)CC(C)C)nn3)CC2)n1
EC50: < 0.1 µM
--
molecule: Cc1ccc(C(C[N+](=O)[O-])c2c(N)n(C)c(=O)n(C)c2=O)cc1 (centres undefined)
EC50: 26.3 µM
--
molecule: CN(C)CCCN(C(=O)COc1ccccc1)c1nc2ccc(Cl)cc2s1
EC50: 46.8 µM
--
molecule: O=C(N/N=C/c1sc2ccccc2c1O)c1cccc2ccccc12
EC50: 2.58 µM
--
molecule: C=CCNc1ncnc2c1[nH]c1ccc(C)cc12
EC50: 29.5 µM
--
molecule: Clc1ccc(-c2cc(C3CCNCC3)[nH]n2)c(Cl)c1
EC50: 24.3 µM
--
molecule: CCCCCOc1ccc(C)cc1CN(CCCl)CCCl
EC50: 28.9 µM

----------
Tested on: THP-1 viability, CellTiter-Glo luminescence, 72 h
method-description: PubChem AID 2252
pEC50: −log10 of the molar value.
measurement-type: pEC50

entry-smiles: O=C(C[n+]1cccc(CNC(=O)c2ccc(OC(F)F)cc2)c1)Nc1ccc(SC(F)F)cc1
measurement-type: pEC50
measured: 5.14

entry-smiles: CCCCCCCCCCn1c2c(c(=N)c3c1CCC3)CCC2
measurement-type: pEC50
measured: 6.68

entry-smiles: CCOC(=O)COc1cccc2c(=O)n(CC(=O)N3CCCCC3)ccc12
measurement-type: pEC50
measured: 4.61

entry-smiles: CN1CC=C(/C=C/c2ccc(-c3ccccc3)cc2)CC1
measurement-type: pEC50
measured: 4.98

----------
Test system: THP-1 viability, CellTiter-Glo luminescence, 72 h
method-description: PubChem AID 2252

molecule: CC(C)NC(=O)Nc1ccc(Br)cc1Cl
EC50: < 0.1 µM
//
molecule: O=[N+]([O-])c1cccc2c(N3CCCC3)ccnc12
EC50: 9.77 µM
//
molecule: CC1CCc2cc(F)cc3c(=O)c(C(=O)O)cn1c23 (centres undefined)
EC50: < 0.1 µM
//
molecule: Nc1nonc1C(=O)NCCN=Cc1cc(Cc2ccccc2)cc(Br)c1O
EC50: 28 µM
//
molecule: COc1ccccc1C(C[N+](=O)[O-])c1c(N)n(C)c(=O)n(C)c1=O (centres undefined)
EC50: 8.91 µM
//
molecule: CN1CCC(=C2c3ccccc3C=Cc3ccccc32)CC1
EC50: 41.3 µM
//
molecule: CCOc1cccc(/C=N/NC(=O)c2cc(C3CC3)[nH]n2)c1O
EC50: 5.46 µM
//
molecule: CN1CCN(C2=Cc3cc(Cl)ccc3Sc3cc(F)ccc32)CC1
EC50: 13.4 µM
//
molecule: CNCCCC1Sc2ccccc2Oc2ccccc21 (centres undefined)
EC50: 23.6 µM
//
molecule: Cc1ccc(NC(=O)c2ccc([N+](=O)[O-])o2)c(C)c1
EC50: 12.1 µM
//
molecule: CN(Cc1ccccc1)CC(O)COc1ccc(CNCc2ccc(Cl)s2)cc1 (centres undefined)
EC50: 22.2 µM
//
molecule: CCCOc1ccc(-c2cn3ccccc3n2)cc1
EC50: 43.5 µM
//
molecule: CN1CCc2c(sc(NC(=O)c3ccc([N+](=O)[O-])o3)c2C(N)=O)C1
EC50: 0.7 µM
//
molecule: CNC[C@H](CC1CCCCC1)NC[C@H](Cc1ccccc1)NCCC12CC3CC(CC(C3)C1)C2
EC50: 3.49 µM
